target: Neuraminidase (Influenza A virus, UniProt B4URF0); assay: Inhibition of Influenza Virus A/Potsdam/15/81 (H1N1) neuraminidase
Sequence (B4URF0 whole entry): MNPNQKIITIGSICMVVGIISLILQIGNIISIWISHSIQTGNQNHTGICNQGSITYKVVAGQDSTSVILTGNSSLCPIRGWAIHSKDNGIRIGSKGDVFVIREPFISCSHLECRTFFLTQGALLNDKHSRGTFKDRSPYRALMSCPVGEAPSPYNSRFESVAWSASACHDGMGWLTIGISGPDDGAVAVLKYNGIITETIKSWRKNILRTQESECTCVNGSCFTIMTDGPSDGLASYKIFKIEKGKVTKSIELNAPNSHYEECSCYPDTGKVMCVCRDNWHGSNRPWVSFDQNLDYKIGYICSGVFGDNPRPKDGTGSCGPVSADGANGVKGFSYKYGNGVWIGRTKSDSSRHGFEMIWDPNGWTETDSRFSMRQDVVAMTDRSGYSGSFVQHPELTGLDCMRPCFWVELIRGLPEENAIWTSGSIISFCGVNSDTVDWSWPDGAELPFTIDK
Measurement name: IC50 (nM)
Your answer is read as nM, so omit the unit and give the number.

For record O=C(CCc1ccccc1)C[C@@H]1C[C@@H](c2ccccc2)c2c(cc(/C=C/c3ccccc3)oc2=O)O1 [KATSUMADAIN A] the listed IC50 is 0.73

###

target: Neuraminidase (Influenza A virus); experiment: Inhibition of Influenza Virus A/Horneburg/IDT7489/08 (H1N1) neuraminidase
Measurement name: IC50 (nM)
Report the value in nM with no unit label.

`O=C(CCc1ccccc1)C[C@@H]1C[C@@H](c2ccccc2)c2c(cc(/C=C/c3ccccc3)oc2=O)O1` tested on Neuraminidase (Influenza A virus) gave IC50: 1.11
